target: Neu5Ac(a2-3)Gal(b1-3)GlcNAc; test: glycan array binding signal (z-score within array); higher = stronger binding; details: glycan notation: IUPAC condensed, linker removed
The entries come from a sample that favours the strongest signals as a whole.
Hi, to clarify the labels: MET covers glycan array binding signal (z-score) from -0.05 upward, NOT MET covers anything below -0.05.

Could you verify whether the entry Pwp7 (Candida glabrata) (protein) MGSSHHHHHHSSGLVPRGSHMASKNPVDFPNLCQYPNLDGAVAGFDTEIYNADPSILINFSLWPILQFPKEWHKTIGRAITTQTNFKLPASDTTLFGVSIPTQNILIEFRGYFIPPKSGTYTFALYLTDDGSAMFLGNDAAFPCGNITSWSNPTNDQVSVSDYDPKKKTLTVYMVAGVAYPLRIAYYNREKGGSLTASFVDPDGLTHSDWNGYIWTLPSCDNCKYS shows glycan array binding signal (z-score) of no less than -0.05?
NOT MET

Could you verify whether the entry Loc1 (Escherichia coli) (protein) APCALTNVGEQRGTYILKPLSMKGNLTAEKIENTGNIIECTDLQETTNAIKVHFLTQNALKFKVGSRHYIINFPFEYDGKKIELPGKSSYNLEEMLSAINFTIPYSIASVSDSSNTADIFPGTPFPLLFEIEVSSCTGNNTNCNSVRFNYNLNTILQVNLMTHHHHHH shows glycan array binding signal (z-score) of no less than -0.05?
NOT MET

Could you verify whether the entry SefD (Salmonella enterica), Q9L6K6 (protein) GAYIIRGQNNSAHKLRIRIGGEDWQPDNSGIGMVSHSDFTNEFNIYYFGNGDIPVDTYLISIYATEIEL shows glycan array binding signal (z-score) of no less than -0.05?
NOT MET

Could you verify whether the entry SpnanA (Streptococcus pneumoniae), P62575 (protein) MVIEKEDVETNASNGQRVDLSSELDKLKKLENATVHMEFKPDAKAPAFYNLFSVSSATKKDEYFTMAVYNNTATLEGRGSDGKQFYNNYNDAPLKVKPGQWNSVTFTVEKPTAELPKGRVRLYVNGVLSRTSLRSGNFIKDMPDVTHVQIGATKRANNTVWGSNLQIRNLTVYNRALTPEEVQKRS shows glycan array binding signal (z-score) of no less than -0.05?
MET

Could you verify whether the entry Eosinophil-derived neurotoxin (EDN) (Homo sapiens), P10153 (protein) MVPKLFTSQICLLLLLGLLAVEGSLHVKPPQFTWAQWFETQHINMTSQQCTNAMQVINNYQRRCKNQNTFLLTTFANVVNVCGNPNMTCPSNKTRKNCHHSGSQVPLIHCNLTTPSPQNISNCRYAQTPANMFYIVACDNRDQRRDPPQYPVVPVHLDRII shows glycan array binding signal (z-score) of no less than -0.05?
NOT MET

Could you verify whether the entry CBM40 CPF071 (Clostridium perfringens) (protein) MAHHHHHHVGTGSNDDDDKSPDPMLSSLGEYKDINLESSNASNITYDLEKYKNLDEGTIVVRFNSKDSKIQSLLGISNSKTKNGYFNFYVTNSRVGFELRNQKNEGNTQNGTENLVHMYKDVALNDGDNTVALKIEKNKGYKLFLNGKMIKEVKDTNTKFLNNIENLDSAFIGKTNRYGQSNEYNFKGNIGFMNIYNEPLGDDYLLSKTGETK shows glycan array binding signal (z-score) of no less than -0.05?
MET
